Test: Caco-2 membrane permeability, improved method as used in the following Examples (96-well, 20 to 24 h preincubation)
Type: in vitro ADME
Applied conditions: human, Caco-2, Caco-2
Protocol: In the following Examples, membrane permeability was measured in accordance with the improved method established as described above. […] Each well was shaken at 5% CO2, 37° C., and 80 rpm, and 180 minutes after the initiation, the sample on the basal side was collected and the permeation amount was measured by LC/MS. The membrane permeability coefficient (Papp) was calculated from the permeation amount. […]
Starred links: 1 amine or outer side, 2 acyl side, 3 side chain; linkers in the order of their positions; H or OH if unused. Positions of bridges follow the written chain, without caps; N, C: chain ends. Non-standard residues stand in square brackets, D forms with d. Residues, ends and D or L forms follow the SMILES beside them. *: point of attachment. NMehPhe = CN[C@@H](CCc1ccccc1)C(=O)O; X9 = O=C(CN(CCOc1ccccc1)[*:1])[*:2]; NMeF = CN[C@@H](Cc1ccccc1)C(=O)O; NMeL = CN[C@@H](CC(C)C)C(=O)O; NMeAbu = CC[C@H](NC)C(=O)O; NMeA = CN[C@@H](C)C(=O)O; Piperidide = C1CCN(*)CC1; Abu = CC[C@H](N)C(=O)O; Sar = CNCC(=O)O
Property name: Papp A→B at 180 min (×10⁻⁶ cm/s)
Numbers only, in ×10⁻⁶ cm/s.

[
  {
    "Compound": "CC[C@@H]1NC(=O)[C@H](Cc2ccccc2)N(C)C(=O)[C@H](CC(C)C)N(C)C(=O)[C@H](CC(C)C)NC(=O)[C@H](CC)N(C)C(=O)C[C@@H](C(=O)N2CCCCC2)NC(=O)[C@H](CC(C)C)N(C)C(=O)CN(C)C(=O)[C@H]([C@@H](C)O)NC(=O)CN(CCOc2ccccc2)C(=O)[C@H](CC(C)C)N(C)C1=O [pd424] ([NMeAbu]L[NMeL][NMeF][Abu][NMeL][X9]T[Sar][NMeL]D-Piperidide; lactam N-11)",
    "Output unit": "×10⁻⁶ cm/s",
    "Papp A→B at 180 min": 1.2
  }
]

I am curious: what Papp A→B at 180 min value has been reported for CC(C)C[C@@H]1NC(=O)[C@H](C)N(C)C(=O)C[C@@H](C(=O)N2CCCCC2)NC(=O)[C@H](CC(C)C)N(C)C(=O)CN(C)C(=O)[C@H]([C@@H](C)O)NC(=O)[C@H](CC(C)C)N(C)C(=O)[C@H](CCc2ccccc2)N(C)C(=O)[C@H](CC(C)C)NC(=O)[C@H](Cc2ccccc2)N(C)C(=O)[C@H](CC(C)C)N(C)C1=O [pd323] ([NMeA]L[NMeL][NMeF]L[NMehPhe][NMeL]T[Sar][NMeL]D-Piperidide; lactam N-11) ?
2.3
